Tested on: KM12 colon
Assay: NCI tumour cell line growth inhibition, 48 h
Observable: TGI

Any idea what its TGI is? The molecule is Nc1nc(N)c2c(n1)NC(c1ccccc1)C1CCc3ccccc3C1=N2 (stereo unspecified)
14.9 µM

Any idea what its TGI is? The molecule is CN(C)CCn1c(=O)c2ccc3c4c(nn3CCN(C)C)c3cc([N+](=O)[O-])ccc3n(c1=O)c24
0.433 µM

Any idea what its TGI is? The molecule is O=C(CC1(O)C(=O)Nc2ccccc21)c1ccc(O)cc1 (stereo unspecified)
> 100 µM

Any idea what its TGI is? The molecule is O=C1NC(N2CCCCC2)=N/C1=C\c1ccccc1O
> 100 µM

Any idea what its TGI is? The molecule is CCC(=O)Nc1ccccc1C#C/C=C\C#Cc1ccccc1C(F)(F)F
> 26.5 µM

Any idea what its TGI is? The molecule is Oc1ccccc1C1=NOC(c2ccc(C(F)(F)F)cc2)C1 (stereo unspecified)
> 50 µM

Where do these numbers come from? They come from PubChem BioAssay (NCI).
